tested on: P.A.F.-induced aggregation of blood platelets; assay: anti-P.A.F. action in vitro (P.A.F.-induced platelet aggregation); type: cell-based; conditions: Oryctolagus cuniculus, 10^-5 mole/liter, read-out: Anti-P.A.F. activity in vitro, % inhibition of the P.A.F.-induced aggregation of blood platelets from rabbit blood
metric.name: inhibition at 10 µM (%)
Kindly answer with a numeric value in %, unit omitted.

Enquiry: Form field: reported inhibition at 10 µM of Cc1cc(-c2c(C)c3cccc4c3n2CC(CCCC(=O)N2CCN(c3ccccn3)CC2)O4)cc(C)c1O (stereo not shown)
Return: 66

Enquiry: Request the reported inhibition at 10 µM associated with COc1ccc2c3c1c(C)c(-c1ccc(O)cc1)n3CC(CCC(=O)N1CCN(c3cc(C)ccn3)CC1)O2 (stereo not shown)
Return: 96

Enquiry: For the molecule Cc1ccnc(N2CCN(CCC3Cn4c(-c5cc(C)c(O)c(C)c5)c(C)c5c(Cl)ccc(c54)O3)CC2)c1 (stereo not shown) , what inhibition at 10 µM is on record?
Return: 69

Enquiry: Consider the molecule shown here: Cc1ccnc(N2CCN(CCC3Cn4c(-c5ccc(O)cc5)c(C)c5c(C)cc(C)c(c54)O3)CC2)c1 (stereo not shown) What is its recorded inhibition at 10 µM?
Return: 93

Enquiry: I am curious: what inhibition at 10 µM value has been reported for COc1cc2c3c(c1)c(C)c(-c1cc(C)c(O)c(C)c1)n3CC(CCN1CCN(c3cc(C)ccn3)CC1)O2 (stereo not shown) ?
Return: 95

Enquiry: Dear colleague, I am looking for the recorded inhibition at 10 µM of the following molecule: Cc1ccnc(N2CCN(C(=O)CCC3Cn4c(-c5cc(C)c(O)c(C)c5)c(C)c5cccc(c54)O3)CC2)c1 (stereo not shown)
Return: 91

Enquiry: Sample Cc1ccnc(N2CCN(C(=O)CCC3Cn4c(-c5ccc(O)cc5)c(C)c5cccc(c54)O3)CC2)c1 (stereo not shown) — what was its inhibition at 10 µM?
Return: 100
